tested on: NCI-H522 lung; assay: NCI-60 one-dose screen, 48 h (100 = growth as untreated, 0 = no growth, -100 = all killed); settings: 10 µM unless noted
About 83,000 compounds went through this panel and 20% of them were active in at least one assay; those are over-represented in the sample as a whole.
Rule: measured growth below 50% gets Met; anything equal to or greater than 50% gets Not met.

{"querySmiles": "CC(=O)OCC1O[C@@H]([S-])C(OC(C)=O)[C@H](OC(C)=O)[C@@H]1OC(C)=O.[Au+].c1ccc(CN2[CH-]N(Cc3ccccc3)C(c3ccccc3)=C2c2ccccc2)cc1", "assignedClass": "Met"}
{"querySmiles": "CC(C)=CCC[C@H](C(=O)O)[C@@H]1CC[C@]2(C)C3=C(CC[C@@]12C)[C@@]1(C)CC[C@H](O)C(C)(C)[C@@H]1CC3", "assignedClass": "Not met"}
{"querySmiles": "O=C(N/N=C\\c1ccc(N(CCCl)CCCl)cc1)c1cccc([N+](=O)[O-])c1", "assignedClass": "Not met"}
{"querySmiles": "CC(=O)O[C@H]1CC[C@]2(C)[C@H]3CC[C@]4(C)[C@@H](OC(C)=O)CC[C@H]4[C@@H]3[C@@H](C)[C@]2(O)C1", "assignedClass": "Not met"}
{"querySmiles": "CCOC(=O)[C@@H](C)C[C@H](Cc1ccccc1)NC(=O)c1csc([C@@H](C[C@H](C(C)C)N(C)C(=O)[C@@H](NC(=O)[C@H]2CCCCN2C)C(C)(C)CC)OC(C)=O)n1", "assignedClass": "Met"}

Quick check: growth of c1cc2c(c3c1CCNC3)OCO2 under 50%?
Not met

Record O=C(N/N=C/c1ccc(N(CCCl)CCCl)cc1)c1cccc2ccccc12 : is its growth strictly below 50%?
Met

Dear reviewer, please state whether CCCCC1(CCC)C(=O)NC(=S)NC1=O has growth strictly beneath 50%.
Not met

Is the reported growth for N#CCCNc1ccccc1 strictly below 50%?
Not met

* * *

system: SF-539 CNS; experiment: NCI-60 one-dose screen, 48 h (100 = growth as untreated, 0 = no growth, -100 = all killed); details: 10 µM unless noted
Compounds without any hit were thinned out: in the full panel of roughly 83,000, 20% have a hit.
measure: growth (%)
Numbers only, in %.

Example results:
{"molecule": "CCC1(C(C)C)C(=O)NC(=S)NC1=O", "growth / %": 94.3}
{"molecule": "CS(=O)(=O)CCN1CC2CCCC(C2)C1", "growth / %": 100}
{"molecule": "Fc1ccc(N2COOC3(OOC2)C2CC4CC(C2)CC3C4)cc1", "growth / %": 82.5}

Working through the 4 molecules below one at a time, give growth for each.
1. CCCCOc1ccc(C(N)Cc2ccccc2)cc1 (configuration not stated)
2. COc1ccc(C(O)(C(=O)O)c2ccc(OC)cc2)cc1
3. Nc1ccc2c(c1)Cc1cc(Br)ccc1-2
4. CCC(=O)Nc1ccc(Cl)c(Cl)c1

[102, 86.8, 100, 92.4]

* * *

tested on: HCT-15 colon; assay: NCI-60 one-dose screen, 48 h (100 = growth as untreated, 0 = no growth, -100 = all killed); conditions: 10 µM unless noted
Compounds without any hit were thinned out: in the full panel of roughly 83,000, 20% have a hit.
measure: growth (%)
Answers are plain numbers, in %.

Take a look at these entries with their results.
{"compound": "C#Cc1ccc2c(c1)C(c1ccccc1F)=NCC(=O)N2C", "growth (%)": 28}
{"compound": "O=C(CC1(O)C(=O)N(Cc2ccccc2)c2ccccc21)c1ccc(C(=O)NCC2CCC3(CC2)OOC2(CCCCC2)OO3)cc1 (stereo not drawn)", "growth (%)": 0.81}
{"compound": "COc1ccc(N(CC(=O)NCCC[Te]c2ccccc2)C(=O)CCSC2=C(C)C(=O)c3ccccc3C2=O)cc1", "growth (%)": -15.7}
{"compound": "COC(=O)[C@@H](C)C[C@H](Cc1ccccc1)NC(=O)c1nc([C@@H](C[C@H](C(C)C)N(C)C(=O)[C@@H](NC(=O)[C@H]2CCCN2C)C(C)C)OC(C)=O)sc1C", "growth (%)": 13.4}
{"compound": "Cc1c(C)c([N+](=O)[O-])c(C)c(C)c1[N+](=O)[O-]", "growth (%)": 100}

Hi, could you look up growth for each item in my list?
1. COc1ccc(O)c(CNC(=O)CN2CCCC2=O)c1
2. CC1=C([Te]c2ccc(O)cc2)C(=O)c2ccccc2C1=O
3. O=C1NC(=O)C(=Cc2ccc(OCCCCC3CCCCC3)c(Cl)c2)C(=O)N1
4. O=C1CC2(CC3(Cl)C(Cl)=C(Cl)C2(Cl)C3(Cl)Cl)C(=O)O1 (stereo not drawn)
5. Cn1cc(-c2csc(-c3cn(CCCCN4CCCCC4)c4ccc(F)cc34)n2)c2cccnc21
6. COc1ccc2c(c1)c(-c1nc(-c3c[nH]c4ncccc34)cs1)cn2CCN1CCOCC1
7. COC(=O)[C@@H](C)C[C@H](Cc1cn(C)c2ccccc12)NC(=O)c1csc([C@@H](C[C@H](C(C)C)N(C)C(=O)[C@@H](NC(=O)[C@H]2CCCCN2C)C(C)C)OC(C)=O)n1
8. CCCOC(=O)N[C@H]1CCc2c(Br)c(OC)c(OC)c(OC)c2-c2ccc(SC)c(=O)cc21

103
13.6
98.5
113
76
31.4
9.96
7.9

Batch lookup, growth per entry.
1. CC(=O)[O][Hg][O]C(C)=O
2. C#Cc1ccc2c(c1)C(c1ccccc1)=NCC(=O)N2C
3. CC(=O)O[C@H](C[C@H](C(C)C)N(C)C(=O)[C@@H](NC(=O)[C@H]1CCCCN1C)C(C)(C)C)c1nc(C(=O)N[C@@H](Cc2ccccc2)C[C@H](C)C(=O)O)cs1
4. CCn1nccc1NC(=O)C(=O)c1cn(Cc2ccc(F)cc2)c2cccc(OC)c12
5. CCOP1(=O)CC(C)=C(Cl)C(P(=O)(OCC)OCC)C1 (stereo not drawn)

1. 93.8
2. 26.4
3. 5.59
4. 91.8
5. 101

* * *

system: ACHN renal; experiment: NCI-60 one-dose screen, 48 h (100 = growth as untreated, 0 = no growth, -100 = all killed); settings: 10 µM unless noted
About 83,000 compounds went through this panel and 20% of them were active in at least one assay; those are over-represented in the sample as a whole.
The threshold is 90%. Values of growth beneath it are tagged rule met; values meeting or exceeding it are tagged rule not met.

Below, 3 compounds whose answers are already recorded.
{"compound": "O=C1C2CCC1C(N1CCCC1)CC2 (stereo not given)", "assignedClass": "rule not met"}
{"compound": "O=C(CC1(O)C(=O)N(Cc2ccccc2)c2ccc(Cl)cc21)c1ccc(C(=O)NCC2CCC3(CC2)OOC2(CCCCC2)OO3)cc1 (stereo not given)", "assignedClass": "rule met"}
{"compound": "CCCc1cc(O)c2c3c(c(=O)oc2c1)CN(C)CC3", "assignedClass": "rule met"}

Would you kindly look at the next entry?
Lab note: growth threshold 90%. Does this compound come in strictly under it? CCCCCCCC(=O)OCC(=O)[C@]1(O)Cc2c(O)c3c(c(O)c2[C@@H](OC2CC(N)C(O)C(C)O2)C1)C(=O)c1c(OC)cccc1C3=O (stereo not given in full)
rule met

* * *

system: EKVX NSCLC; test: NCI-60 one-dose screen, 48 h (100 = growth as untreated, 0 = no growth, -100 = all killed); settings: 10 µM unless noted
The panel holds about 83,000 compounds, 20% with a hit somewhere; the sample as a whole holds those more often.
measure: growth (%)
Numbers only, in %.

Examples from the recorded data:
{"compound": "C[n+]1c(/C=C/c2ccc(N(CCCl)CCCl)cc2)sc2ccccc21", "measured": 83.4}
{"compound": "CO[C@H](C(=O)O)[C@@H]1Cc2cc3cc(OC4CC(OC5CC(O)C(O)C(C)O5)C(O)C(C)O4)c(C)c(O)c3c(O)c2C(=O)[C@H]1OC1CC(OC2CC(OC3CC(C)(O)C(O)C(C)O3)C(O)C(C)O2)C(O)C(C)O1 (stereo not given in full)", "measured": 31.3}
{"compound": "COc1ccc(/C(C)=C(\\c2ccc(OCCN3CCOCC3)cc2)c2ccc(OC(=O)Cc3ccccc3)cc2)cc1", "measured": 97.7}

Hi, could you look up growth for each item in my list?
1. C[C@@H]1CCC2[C@@H](C)[C@H](OC(=O)CCC(=O)NCCNC(=O)Cc3cc(=O)oc4cc(N(C)C)ccc34)O[C@@H]3O[C@]4(C)CC[C@@H]1C23OO4 (stereo not given in full)
2. COc1ccc(/C=C\c2cc(OC)c(OC)c(OC)c2)cc1OCC(=O)Nc1nc2ccc(F)cc2s1
3. COC(=O)[C@@H](C)C[C@H](Cc1ccccc1)NC(=O)c1cccc([C@@H](C[C@H](C(C)C)N(C)C(=O)[C@@H](NC(=O)[C@H]2CCCCN2C)C(C)C)OC(C)=O)n1
4. CCOC(=O)[C@@H](C)C[C@H](Cc1ccccc1)NC(=O)c1csc([C@@H](C[C@H](C(C)C)N(C)C(=O)[C@@H](NC(=O)[C@H]2CCCCN2C)C(C)(C)CC)OC(C)=O)n1
5. CC1[C@H](C)OC(=O)CC(O)CC(O)CC(O)CCC(O)C(O)C[C@]2(O)CC(O)C(C(=O)O)C(CC(OC3O[C@H](C)[C@@H](O)[C@H](N)[C@@H]3O)/C=C/C=C/C=C/C=C/CC/C=C/C=C/[C@H](C)[C@H]1O)O2 (stereo not given in full)
6. COc1cc2ncnc(Nc3ccc(F)c(Cl)c3)c2cc1OCC(=O)N1CCN(C)CC1

1: 35.3; 2: 57.7; 3: 34.3; 4: 37.4; 5: 104; 6: 61.8

Hi team, please reply with growth for each item in this list.
1. COC(=O)[C@@H](C)C[C@H](Cc1ccccc1)NC(=O)c1csc([C@@H](C[C@H](C(C)C)N(C)C(=O)[C@@H](NC(=O)[C@H]2CCCCN2C)C2CC2)OC(C)=O)n1
2. CCCCOc1ccc(C(N)Cc2ccccc2)cc1 (stereo not given)
3. Cn1cc(C2=C(c3cn(C4CCN(Cc5ccccn5)CC4)c4ccccc34)C(=O)NC2=O)c2ccccc21
4. COc1cc2c(cc1OCc1ccccc1)C(CC(C)C)=[N+](C)CC2

1. 42.3
2. 91.8
3. 83.4
4. 68.6

I need growth for every entry listed below, if you could help.
1. CN1C(=O)N[C@H]2[C@@H]3NC(=O)c4ccc(Br)n4[C@@H]3C[C@]21O
2. N#CCCNc1ccccc1

1: -17.4; 2: 98
